- system_under_test: T1, recombinant human IL-4Rα (extracellular domain, tagged) (human, UniProt P24394 26-232)
- T1 construct: it is written second here only for want of that; also called hIL-4Rα; not shown: His-tag or other conventionally used tag
- procedure_summary: SPR, Biacore T200; antibody (human IgG4) on the sensor chip, human IL-4Rα at 0.625-12.5 nM
parameter: pKd
Interpret pKd as the negative base-10 log of the concentration measured in mol/L.

Worked cases, answers included:
| binder | pKd |
| --- | --- |
| C27-47-56 (antibody, human IgG4, V domains shown) VH: EVQLLESGGGLVQPGGSLRLSCAASGFTLSSYAMHWVRQAPGKGLEYVSGISPTGTSTYYANSVKGRFTISRDNPKNTLFLQMSSLRAEDTAVYYCVRVKGAYRGGMDVWGQGTTVTVSS VL: EIVLTQSPGTLSLSPGERATLSCRASQSVSSAYLAWYQQKPGQAPRLLIYGTSRRATGIPDRFSGSGSGTDFTLTISRLEPEDFAVYYCQLYGASSVTFGQGTKLEIK | 8.74 |
| C27-Y2-Y2 (antibody, human IgG4, V domains shown) VH: EVQLLESGGGLVQPGGSLRLSCAASGFTLSSYAMHWVRQAPGKGLEYVSGISYSSASTYYANSVKGRFTISRDNPKNTLFLQMSSLRAEDTAVYYCVRVKVRYRGGMDVWGQGTTVTVSS VL: EIVLPQSPGTLSLSPGERATLSCRASQGVSSAYLAWYQQKPGQAPRLLIYGTSRRATGIPDRFSGSGSGTDFTLTISRLEPEDFAVYYCQLYGSTSVTFGQGTKLEIK | 8.25 |
| C27 (antibody, human IgG4, V domains shown, also called parent antibody C27; lead parent antibody) VH: EVQLLESGGGLVQPGGSLRLSCAASGFTLSSYAMHWVRQAPGKGLEYVSGISSNGGSTYYANSVKGRFTISRDNPKNTLFLQMSSLRAEDTAVYYCVRVKVGYRGGMDVWGQGTTVTVSS VL: ETTLTQSPDTLPLSPGDRASLSCRASQSVSSAYLAWYQQKPGQAPRLLIYGTSRRATGVPGRFSGSGSGTDFTLTISRLEPEDFAVYYCQLYGSSSVTFGQGTKLEIK | 7.75 |
| C27-82-58 (antibody, human IgG4, V domains shown) VH: EVQLLESGGGLVQPGGSLRLSCAASGFTLSSYAMHWVRQAPGKGLEYVSGISGNSASTYYANSVKGRFTISRDNPKNTLFLQMSSLRAEDTAVYYCVRVKLKYRGGMDVWGQGTTVTVSS VL: EIVLTQSPGTLSLSPGERATLSCRASQDISSAYLAWYQQKPGQAPRLLIYGTSRRATGIPDRFSGSGSGTDFTLTISRLEPEDFAVYYCQLYGATSVTFGQGTKLEIK | 8.44 |
| C27-6-33 (antibody, human IgG4, V domains shown) VH: EVQLLESGGGLVQPGGSLRLSCAASGFTLSSYAMHWVRQAPGKGLEYVSGISPSGSSTYYANSVKGRFTISRDNPKNTLFLQMSSLRAEDTAVYYCVRSKVRYRGGMDVWGQGTTVTVSS VL: EIVLTQSPGTLSLSPGERATLSCRASQGISSAYLAWYQQKPGQAPRLLIYGTSRRATGIPDRFSGSGSGTDFTLTISRLEPEDFAVYYCQLYGATSVTFGQGTKLEIK | 8.67 |

Which measured pKd value corresponds to C27-55-55 (antibody, human IgG4, V domains shown) VH: EVQLLESGGGLVQPGGSLRLSCAASGFTLSSYAMHWVRQAPGKGLEYVSGISPTGGSTYYANSVKGRFTISRDNPKNTLFLQMSSLRAEDTAVYYCVRVKGRYRGGMDVWGQGTTVTVSS VL: EIVLTQSPGTLSLSPGERATLSCRASQNISTAYLAWYQQKPGQAPRLLIYGTSRRATGIPDRFSGSGSGTDFTLTISRLEPEDFAVYYCQLYGTSSVTFGQGTKLEIK ? 8.61

Which measured pKd value corresponds to C27-7-33 (antibody, human IgG4, V domains shown) VH: EVQLLESGGGLVQPGGSLRLSCAASGFTLSSYAMHWVRQAPGKGLEYVSGISPSGVSTYYANSVKGRFTISRDNPKNTLFLQMSSLRAEDTAVYYCVRVKVKYRGGMDVWGQGTTVTVSS VL: EIVLTQSPGTLSLSPGERATLSCRASQGISSAYLAWYQQKPGQAPRLLIYGTSRRATGIPDRFSGSGSGTDFTLTISRLEPEDFAVYYCQLYGATSVTFGQGTKLEIK ? 9.00
